Cited source for all entries: patent US12685735B2

- test.target: BRM (Homo sapiens)
- Sequence (P51531 whole entry): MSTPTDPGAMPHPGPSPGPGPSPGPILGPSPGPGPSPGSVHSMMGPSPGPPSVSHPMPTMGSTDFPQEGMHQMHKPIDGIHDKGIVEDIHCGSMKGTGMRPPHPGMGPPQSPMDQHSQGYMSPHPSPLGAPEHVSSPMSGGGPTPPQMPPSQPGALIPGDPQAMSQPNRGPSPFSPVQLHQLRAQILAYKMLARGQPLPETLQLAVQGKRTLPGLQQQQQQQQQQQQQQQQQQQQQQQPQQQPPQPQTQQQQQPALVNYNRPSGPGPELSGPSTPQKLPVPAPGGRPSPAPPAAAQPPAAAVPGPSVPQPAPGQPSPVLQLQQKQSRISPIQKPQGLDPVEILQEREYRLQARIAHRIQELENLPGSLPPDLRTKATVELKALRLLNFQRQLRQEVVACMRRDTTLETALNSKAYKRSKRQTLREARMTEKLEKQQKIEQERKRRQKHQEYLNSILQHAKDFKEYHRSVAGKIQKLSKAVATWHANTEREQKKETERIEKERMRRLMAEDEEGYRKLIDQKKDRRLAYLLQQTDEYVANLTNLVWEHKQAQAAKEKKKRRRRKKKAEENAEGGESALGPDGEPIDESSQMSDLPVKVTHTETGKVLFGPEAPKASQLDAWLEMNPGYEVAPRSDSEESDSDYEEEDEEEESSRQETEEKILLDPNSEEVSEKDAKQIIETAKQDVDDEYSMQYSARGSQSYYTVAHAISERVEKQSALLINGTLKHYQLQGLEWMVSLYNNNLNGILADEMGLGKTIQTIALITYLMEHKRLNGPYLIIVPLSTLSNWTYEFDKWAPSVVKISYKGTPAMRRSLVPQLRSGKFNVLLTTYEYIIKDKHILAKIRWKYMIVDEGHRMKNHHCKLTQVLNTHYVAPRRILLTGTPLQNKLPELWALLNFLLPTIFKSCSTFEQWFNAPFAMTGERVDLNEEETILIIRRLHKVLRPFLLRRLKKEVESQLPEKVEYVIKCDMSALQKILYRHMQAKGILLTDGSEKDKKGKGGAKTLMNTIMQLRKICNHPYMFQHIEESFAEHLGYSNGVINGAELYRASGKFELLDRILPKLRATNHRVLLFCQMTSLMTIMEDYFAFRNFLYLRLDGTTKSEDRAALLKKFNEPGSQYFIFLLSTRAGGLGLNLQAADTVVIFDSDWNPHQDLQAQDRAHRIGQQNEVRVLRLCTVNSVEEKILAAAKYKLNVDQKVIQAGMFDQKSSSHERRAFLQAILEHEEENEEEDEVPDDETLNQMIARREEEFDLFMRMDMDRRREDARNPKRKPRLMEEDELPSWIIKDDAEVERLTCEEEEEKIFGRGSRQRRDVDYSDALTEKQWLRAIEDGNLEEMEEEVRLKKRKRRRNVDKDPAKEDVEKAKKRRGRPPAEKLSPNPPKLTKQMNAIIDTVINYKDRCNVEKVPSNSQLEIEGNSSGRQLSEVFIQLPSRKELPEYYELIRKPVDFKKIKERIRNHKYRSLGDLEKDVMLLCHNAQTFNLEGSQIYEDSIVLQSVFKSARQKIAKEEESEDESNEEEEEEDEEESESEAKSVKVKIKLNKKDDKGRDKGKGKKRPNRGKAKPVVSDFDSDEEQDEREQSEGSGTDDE
- experiment.description: ATPase catalytic activity assay of BRM (ADP-Glo)
- Type: biochemical
Measured BRM Max % Inhibition, listed per entry.

molecule	BRM Max % Inhibition
COc1cccc(-c2csc(NC(=O)CNC(=O)c3ccc4c(c3)C(C)(C#N)CNC4)n2)c1 (stereo not shown)	>95%
CN1C[C@@](C)(C#N)c2cc(C(=O)NCC(=O)Nc3nc(-c4cc(F)cc(N5CCC5)c4)cs3)ccc21	>95%
Cc1nccc(-c2cccc(-c3csc(NC(=O)CNC(=O)c4ccc5c(c4)[C@@](C)(C#N)CC5)n3)n2)n1	>80%
CC(=O)NCc1cccc(-c2cccc(-c3csc(NC(=O)CNC(=O)c4cccc(S(=O)(=O)C(C)C)c4)n3)c2)c1	>90%
